system: T1, S. cerevisiae β’WD40 domain (N-terminal WD40 domain of β’-COPI), wild type (S. cerevisiae, UniProt P41811 1-300)
T1 sequence: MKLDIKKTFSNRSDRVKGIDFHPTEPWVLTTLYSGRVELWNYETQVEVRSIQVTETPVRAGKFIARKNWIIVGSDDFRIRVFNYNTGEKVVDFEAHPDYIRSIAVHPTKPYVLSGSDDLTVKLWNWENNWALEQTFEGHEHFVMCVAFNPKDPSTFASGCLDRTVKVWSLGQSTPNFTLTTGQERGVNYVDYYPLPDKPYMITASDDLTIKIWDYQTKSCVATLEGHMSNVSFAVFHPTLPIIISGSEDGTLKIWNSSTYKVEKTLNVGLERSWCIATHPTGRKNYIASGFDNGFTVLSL
protocol.text: BLI
No end group written: not given here.
metric.name: Kd (µM)
Numbers only, in µM.

Lookup: Need Kd of GVKLHYE (also: biotinylated) [clientized (Thr1273Glu) SARS-CoV-2 S tail heptapeptide (residues 1267-1273), biotinylated] , thanks.
Found: 2.3

# credit: paper doi:10.1101/2023.03.09.531992
